Where do these numbers come from? They come from patent US9409952B2.

Could you please report measured Papp at 18 hours, 50 µM for the items listed next?
- METHOD: PAMPA (parallel artificial membrane permeability assay)
- Assay type: in vitro ADME
- CONDITION PARAMETERS: PAMPA, pH 6.5
Starred links: 1 amine or outer side, 2 acyl side, 3 side chain; linkers in the order of their positions; H or OH if unused. Positions of bridges follow the written chain, without caps; N, C: chain ends. Non-standard residues stand in square brackets, D forms with d. Residues, ends and D or L forms follow the SMILES beside them. *: point of attachment. NMeF = CN[C@@H](Cc1ccccc1)C(=O)O; NMeGABA = CN(CCCC(=O)[*:2])[*:1]; NMeL = CN[C@@H](CC(C)C)C(=O)O; NMeV = CN[C@H](C(=O)O)C(C)C; NMeA = CN[C@@H](C)C(=O)O; Piperidide = C1CCN(*)CC1; β3hA = C[C@H](N)CC(=O)O
Give bare numbers, in ×10⁻⁶ cm/s.

Example cases with answers are listed next.
* CC(C)C[C@H]1C(=O)N(C)[C@@H](C)C(=O)N(C)[C@@H](C)C(=O)N(C)[C@@H](Cc2ccccc2)C(=O)N[C@@H]([C@@H](C)O)C(=O)N(C)[C@@H](Cc2ccccc2)C(=O)N(C)[C@@H](CC(C)C)C(=O)N2CCC[C@H]2C(=O)N[C@@H](C)CC(=O)N[C@@H](C)C(=O)NCC(=O)N1C [DP-766] (cyclo(AG[NMeL][NMeA][NMeA][NMeF]T[NMeF][NMeL]P[β3hA])) | 13
* CC[C@H](C)[C@@H]1NC(=O)[C@H](CC(C)C)N(C)C(=O)[C@H](C)NC(=O)CCCN(C)C(=O)C[C@H](C)NC(=O)[C@H]([C@@H](C)O)NC(=O)[C@H](Cc2ccccc2)NC(=O)[C@H](C(C)C)N(C)C(=O)[C@H](C)N(C)C(=O)[C@H](Cc2ccccc2)N(C)C1=O [DP-778] (cyclo(A[NMeL]I[NMeF][NMeA][NMeV]FT[β3hA][NMeGABA])) | 26

Note: attention shifts to another entry.
// query What value of Papp at 18 hours, 50 µM has been recorded for this entry: CC(C)C[C@H]1C(=O)N(C)[C@@H](Cc2ccccc2)C(=O)N(C)[C@@H](CC(C)C)C(=O)N[C@H](C(=O)N2CCCCC2)CC(=O)N[C@H](C(C)C)C(=O)N[C@@H](C)C(=O)N[C@@H]([C@@H](C)O)C(=O)N(C)[C@@H](C)C(=O)N[C@@H](Cc2ccccc2)C(=O)N1C [DP-78] ([dV]AT[NMeA]F[NMeL][NMeF][NMeL]D-Piperidide; lactam N-9)
// result 38
